system: Venturia inaequalis; assay: Spore germination test; assay type: cell-based; conditions: VI, 10 ppm, 48 hours
quantity measured: Spore Germination Rating

[[record]]
structure_as_smiles = "O=c1c(Cl)nsnc1Oc1cccc(Cl)c1"
result = "0 (0-10)"

[[record]]
structure_as_smiles = "CC(=O)c1cccc(Oc2nsnc(Cl)c2=O)c1"
result = "0 (0-10)"

[[record]]
structure_as_smiles = "Cc1cccc(Oc2nsnc(Cl)c2=O)c1"
result = "0 (0-10)"

[[record]]
structure_as_smiles = "O=c1c(Cl)nsnc1Oc1ccccc1"
result = "0 (0-10)"

[[record]]
structure_as_smiles = "O=C(Nc1ccccc1)Nc1ccc(Oc2nsnc(Cl)c2=O)cc1"
result = "4 (80-100)"

[[record]]
structure_as_smiles = "CC(=O)c1ccc(Oc2nsnc(Cl)c2=O)cc1"
result = "0 (0-10)"

[[record]]
structure_as_smiles = "Cc1cc(Cl)ccc1Oc1nsnc(Cl)c1=O"
result = "0 (0-10)"

[[record]]
structure_as_smiles = "O=c1c(Cl)nsnc1Oc1ccc(F)cc1"
result = "0 (0-10)"

[[record]]
structure_as_smiles = "Cc1ccccc1Oc1nsnc(Cl)c1=O"
result = "0 (0-10)"

[[record]]
structure_as_smiles = "Nc1ccc(Oc2nsnc(Cl)c2=O)cc1"
result = "4 (80-100)"

[[record]]
structure_as_smiles = "CC(=O)c1ccccc1Oc1nsnc(Cl)c1=O"
result = "1 (10-40)"


###

Entries and their Spore Germination Rating values follow.
test system: Uromyces phaseoli; test: Spore germination test; type: cell-based; conditions: UP, 10 ppm, 48 hours
quantity measured: Spore Germination Rating

[[record]]
compound = "O=C(O)Cc1ccccc1Oc1nsnc(Cl)c1=O"
result = "4 (80-100)"

[[record]]
compound = "O=c1c(Cl)nsnc1Oc1c(Cl)cccc1Cl"
result = "0 (0-10)"

[[record]]
compound = "Cc1cc(C)cc(Oc2nsnc(Cl)c2=O)c1"
result = "1 (10-40)"

[[record]]
compound = "O=c1c(Cl)nsnc1Oc1c(Cl)cc(Cl)cc1Cl"
result = "0 (0-10)"

[[record]]
compound = "O=C(Nc1ccccc1)Nc1ccc(Oc2nsnc(Cl)c2=O)cc1"
result = "2 (40-60)"

[[record]]
compound = "Cc1cccc(Oc2nsnc(Cl)c2=O)c1"
result = "0 (0-10)"

[[record]]
compound = "Cc1ccc(Oc2nsnc(Cl)c2=O)c(C)c1"
result = "1 (10-40)"

[[record]]
compound = "Cc1cc(Cl)ccc1Oc1nsnc(Cl)c1=O"
result = "0 (0-10)"

[[record]]
compound = "Cc1cc(Oc2nsnc(Cl)c2=O)cc(C)c1Cl"
result = "0 (0-10)"

[[record]]
compound = "O=c1c(Cl)nsnc1Oc1ccc(F)cc1"
result = "0 (0-10)"

[[record]]
compound = "CCCCNC(=O)n1c(NC(=O)OC)nc2ccccc21 [Benomyl, reference compound]"
result = "1 (10-40)"

[[record]]
compound = "Cc1cc(Cl)c(Oc2nsnc(Cl)c2=O)cc1C"
result = "0 (0-10)"

[[record]]
compound = "O=c1c(Cl)nsnc1Oc1ccc(Cl)c(Cl)c1"
result = "0 (0-10)"

[[record]]
compound = "O=c1c(Cl)nsnc1Oc1ccc(O)cc1"
result = "0 (0-10)"

[[record]]
compound = "O=c1c(Cl)nsnc1Oc1cccc(Cl)c1"
result = "0 (0-10)"


###

test system: Pyricularia oryzae; test: microbe, parasite or virus in culture; format: cell-based; settings: Pyricularia oryzae, 72 h, read-out: Percent Fungus Growth Inhibition, PO, 40 ppm, 72 hours
Entries and their inhibition at 40 ppm values follow.
quantity measured: inhibition at 40 ppm

[[record]]
molecule = "O=C(OCc1ccccc1)Oc1ccc(Oc2nsnc(Cl)c2=O)cc1"
target_or_test_system = "Pyricularia oryzae"
result = "46%"

[[record]]
molecule = "Cc1ccccc1Oc1nsnc(Cl)c1=O"
target_or_test_system = "Pyricularia oryzae"
result = "63%"

[[record]]
molecule = "O=c1c(Cl)nsnc1Oc1ccc(O)cc1"
target_or_test_system = "Pyricularia oryzae"
result = "100%"

[[record]]
molecule = "O=c1c(Cl)nsnc1Oc1ccc([N+](=O)[O-])cc1Cl"
target_or_test_system = "Pyricularia oryzae"
result = "67%"

[[record]]
molecule = "O=c1c(Cl)nsnc1Oc1ccccc1"
target_or_test_system = "Pyricularia oryzae"
result = "100%"

[[record]]
molecule = "CS(=O)(=O)c1ccc(Oc2nsnc(Cl)c2=O)cc1"
target_or_test_system = "Pyricularia oryzae"
result = "93%"

[[record]]
molecule = "Cc1cc(Oc2nsnc(Cl)c2=O)cc(C)c1Cl"
target_or_test_system = "Pyricularia oryzae"
result = "50%"

[[record]]
molecule = "O=c1c(Cl)nsnc1Oc1ccc(Cl)cc1Cl"
target_or_test_system = "Pyricularia oryzae"
result = "71%"

[[record]]
molecule = "C[S+]([O-])c1ccc(Oc2nsnc(Cl)c2=O)cc1 (stereo not shown)"
target_or_test_system = "Pyricularia oryzae"
result = "89%"

[[record]]
molecule = "O=c1c(Cl)nsnc1Oc1cccc(C(F)(F)F)c1"
target_or_test_system = "Pyricularia oryzae"
result = "100%"

[[record]]
molecule = "Cc1cc(Cl)c(Oc2nsnc(Cl)c2=O)cc1C"
target_or_test_system = "Pyricularia oryzae"
result = "50%"

[[record]]
molecule = "CC(=O)c1cccc(Oc2nsnc(Cl)c2=O)c1"
target_or_test_system = "Pyricularia oryzae"
result = "100%"

[[record]]
molecule = "CNC(=O)Nc1ccc(Oc2nsnc(Cl)c2=O)cc1"
target_or_test_system = "Pyricularia oryzae"
result = "90%"

[[record]]
molecule = "COc1ccc(Cl)c(Oc2nsnc(Cl)c2=O)c1"
target_or_test_system = "Pyricularia oryzae"
result = "100%"

[[record]]
molecule = "O=c1c(Cl)nsnc1Oc1cccc2ccccc12"
target_or_test_system = "Pyricularia oryzae"
result = "89%"

[[record]]
molecule = "O=C(O)c1ccc(Oc2nsnc(Cl)c2=O)cc1"
target_or_test_system = "Pyricularia oryzae"
result = "100%"

[[record]]
molecule = "O=c1c(Cl)nsnc1Oc1cccc(Cl)c1Cl"
target_or_test_system = "Pyricularia oryzae"
result = "87%"

[[record]]
molecule = "O=c1c(Cl)nsnc1Oc1cccc(Cl)c1"
target_or_test_system = "Pyricularia oryzae"
result = "100%"

[[record]]
molecule = "CSc1ccc(Oc2nsnc(Cl)c2=O)cc1"
target_or_test_system = "Pyricularia oryzae"
result = "61%"


###

Entries and their inhibition at 5 ppm values follow.
tested on: Pyricularia oryzae; assay: microbe, parasite or virus in culture; format: cell-based; settings: Pyricularia oryzae, 72 h, read-out: Percent Fungus Growth Inhibition, PO, 5 ppm, 72 hours
quantity measured: inhibition at 5 ppm (%)

[[record]]
compound = "O=c1c(Cl)nsnc1Oc1c(Cl)cccc1Cl [Compound 18]"
target_or_test_system = "Pyricularia oryzae"
recorded_number = 26

[[record]]
compound = "O=c1c(Cl)nsnc1Oc1ccc(Cl)c(Cl)c1 [Compound 16]"
target_or_test_system = "Pyricularia oryzae"
recorded_number = 41

[[record]]
compound = "O=C(O)c1ccc(Oc2nsnc(Cl)c2=O)cc1 [Compound 50]"
target_or_test_system = "Pyricularia oryzae"
recorded_number = 11

[[record]]
compound = "CC(=O)Nc1cccc(Oc2nsnc(Cl)c2=O)c1 [Compound 42]"
target_or_test_system = "Pyricularia oryzae"
recorded_number = 7

[[record]]
compound = "O=C(Nc1ccccc1)Nc1ccc(Oc2nsnc(Cl)c2=O)cc1 [Compound 29]"
target_or_test_system = "Pyricularia oryzae"
recorded_number = 19

[[record]]
compound = "N#Cc1c(Cl)c(Cl)c(Cl)c(C#N)c1Cl [Chlorothalonil, reference compound]"
target_or_test_system = "Pyricularia oryzae"
recorded_number = 26

[[record]]
compound = "O=c1c(Cl)nsnc1Cl [Compound 1, 3,5-dichloro-4H--1,2,6-thiadiazin-4-one]"
target_or_test_system = "Pyricularia oryzae"
recorded_number = 42

[[record]]
compound = "CSc1ccc(Oc2nsnc(Cl)c2=O)cc1 [Compound 39]"
target_or_test_system = "Pyricularia oryzae"
recorded_number = 42

[[record]]
compound = "O=c1c(Cl)nsnc1Oc1ccc(F)cc1 [Compound 11]"
target_or_test_system = "Pyricularia oryzae"
recorded_number = 15

[[record]]
compound = "O=c1c(Cl)nsnc1Oc1cc(Cl)cc(Cl)c1 [Compound 20]"
target_or_test_system = "Pyricularia oryzae"
recorded_number = 48

[[record]]
compound = "Cc1ccccc1Oc1nsnc(Cl)c1=O [Compound 22]"
target_or_test_system = "Pyricularia oryzae"
recorded_number = 21

[[record]]
compound = "Cc1cc(Oc2nsnc(Cl)c2=O)cc(C)c1Br [Compound 60]"
target_or_test_system = "Pyricularia oryzae"
recorded_number = 32

[[record]]
compound = "Cc1ccc(Cl)c(Oc2nsnc(Cl)c2=O)c1 [Compound 56]"
target_or_test_system = "Pyricularia oryzae"
recorded_number = 38

[[record]]
compound = "CC(=O)Nc1ccccc1Oc1nsnc(Cl)c1=O [Compound 43]"
target_or_test_system = "Pyricularia oryzae"
recorded_number = 13

[[record]]
compound = "COc1ccc(Cl)c(Oc2nsnc(Cl)c2=O)c1 [Compound 51]"
target_or_test_system = "Pyricularia oryzae"
recorded_number = 46

[[record]]
compound = "CCCCOc1ccc(Oc2nsnc(Cl)c2=O)cc1 [Compound 6]"
target_or_test_system = "Pyricularia oryzae"
recorded_number = 15

[[record]]
compound = "CC(=O)Nc1ccc(Oc2nsnc(Cl)c2=O)cc1 [Compound 8]"
target_or_test_system = "Pyricularia oryzae"
recorded_number = 23

[[record]]
compound = "O=C(Nc1ccccc1)Oc1ccc(Oc2nsnc(Cl)c2=O)cc1 [Compound 37]"
target_or_test_system = "Pyricularia oryzae"
recorded_number = 44

[[record]]
compound = "COc1ccc(Oc2nsnc(Cl)c2=O)cc1 [Compound 5]"
target_or_test_system = "Pyricularia oryzae"
recorded_number = 4

[[record]]
compound = "Cc1cc(Cl)c(Oc2nsnc(Cl)c2=O)cc1C [Compound 58]"
target_or_test_system = "Pyricularia oryzae"
recorded_number = 43

[[record]]
compound = "O=c1c(Cl)nsnc1Oc1ccc(Br)cc1 [Compound 15]"
target_or_test_system = "Pyricularia oryzae"
recorded_number = 12

